Avg % Deletion values for the molecules below.
Test system: TTR
Experiment: TTR editing in primary human hepatocytes transfected with Spy Cas9 mRNA and sgRNAs (Table 13)
Type: cell-based
Settings: primary human hepatocytes co-transfected with Spy Cas9 mRNA (SEQ ID NO:2) and sgRNAs, 12.5 nM
Strand notation (5' to 3'): a small letter for the sugar, then the base; units joined by * are phosphorothioate-linked, units joined directly phosphodiester-linked; [ ] holds rarer units or linkages, { } end groups; capitals alone tell only the bases. m = 2'-O-methyl; r = 2'-OH (RNA)
Report as a plain number; the unit % is understood.

Recorded Avg % Deletion, per entry:
>>> number("G000484: TTR sgRNA modified sequence, Human, SEQ ID No. 91; guide sequence of CR003367 (nucleic acid) guide: mA*mG*mA*rCrArCrCrArArArUrCrUrUrArCrUrGrGrArGrUrUrUrUrArGrAmGmCmUmAmGmAmAmAmUmAmGmCrArArGrUrUrArArArArUrArArGrGrCrUrArGrUrCrCrGrUrUrArUrCrAmAmCmUmUmGmAmAmAmAmAmGmUmGmGmCmAmCmCmGmAmGmUmCmGmGmUmGmCmU*mU*mU*mU")
29.48
>>> number("G000497: TTR sgRNA modified sequence, Human, SEQ ID No. 104; guide sequence of CR003335 (nucleic acid) guide: mC*mU*mG*rCrUrCrCrUrCrCrUrCrUrGrCrCrUrUrGrCrGrUrUrUrUrArGrAmGmCmUmAmGmAmAmAmUmAmGmCrArArGrUrUrArArArArUrArArGrGrCrUrArGrUrCrCrGrUrUrArUrCrAmAmCmUmUmGmAmAmAmAmAmGmUmGmGmCmAmCmCmGmAmGmUmCmGmGmUmGmCmU*mU*mU*mU")
5.85

Exercise: I am curious: what Avg % Deletion value has been reported for G000480: TTR sgRNA modified sequence, Human, SEQ ID No. 87; guide sequence of CR003353 (nucleic acid) guide: mA*mA*mA*rGrGrCrUrGrCrUrGrArUrGrArCrArCrCrUrGrUrUrUrUrArGrAmGmCmUmAmGmAmAmAmUmAmGmCrArArGrUrUrArArArArUrArArGrGrCrUrArGrUrCrCrGrUrUrArUrCrAmAmCmUmUmGmAmAmAmAmAmGmUmGmGmCmAmCmCmGmAmGmUmCmGmGmUmGmCmU*mU*mU*mU ?
Key: 13.47
